Measurement Description: NCI Yeast Anticancer Drug Screen. Data for the CLN2oe strain (AID 163);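 also: 0% = growth of vehicle-only control cultures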
Test Parameters: S. cerevisiae CLN2oe strain, at 1.2 µM
The panel holds about 79,000 compounds, 15% with a hit somewhere; the sample as a whole holds those more often. Calls of active or inactive are those of the source. Rule as the data show it: active = growth inhibition above about 70%; inactive = the rest.
Outcome codes: 1.0 for active, 0.0 for inactive

| Molecule | Assigned Label |
| --- | --- |
| O=C(Oc1ccc([N+](=O)[O-])cc1)c1ccc([N+](=O)[O-])cc1 | 0.0 |
| COc1cc2oc3ccccc3c(=O)c2cc1CSc1ccccc1N | 0.0 |
| CCCCS/C(=C(/C#N)C(N)=O)c1cc2c([nH]1)CCCC2 | 0.0 |
| O=C1c2ccccc2N2OC3(N4CCCC4)CCCCC3C12c1ccccc1 (configuration not stated) | 0.0 |
| CC1(C2CC2)C(C#N)(C#N)C1(C#N)C#N | 0.0 |
| [N-]=[N+]=NC1(c2ccccc2)C(=O)Nc2ccccc2C1=O (configuration not stated) | 0.0 |
| CC(C)OC(=O)NNc1cc(Cl)ccc1Cl | 0.0 |
| CN(C)CC(CN(C)C)C(=O)/C=C/c1ccc(Cl)cc1Cl | 0.0 |
| C[n+]1c(/C=C/c2ccc(/C=N/NC(=O)c3ccc(C(=O)N/N=C/c4ccc(/C=C/c5cn6ccccc6[n+]5C)cc4)cc3)cc2)cn2ccccc21 | 0.0 |
| CCN(CC)CCNc1ccc2nc(C)n3c4ccc(O)cc4c(=O)c1c23 | 0.0 |
| OB(O)c1ccccc1C#Cc1ccccc1 | 0.0 |
| CCCCCCCCNCCCCCCCC | 0.0 |
| COc1cccc(/C=C2\S/C(=N/Nc3nc(-c4ccc([N+](=O)[O-])cc4)cs3)NC2=O)c1O | 0.0 |
| Cc1cccc(C)c1NC(=O)C(C#N)C1=C(Cl)C(=O)c2ccccc2C1=O (configuration not stated) | 0.0 |
| O=C1C(=O)N(c2ccccc2)[C@@]2(c3ccccc3)C(=Nc3ccccc3)OC(c3ccccc3)=C12 | 0.0 |
| O=S(=O)(c1ccccc1)N1CN2CN(C1)CN(S(=O)(=O)c1ccccc1)C2 | 0.0 |
| CCCCN(CCCC)c1ccc(N=Nc2ccc(S(=O)(=O)O)cc2)cc1 | 0.0 |
| CC(=O)/C=C/c1cc([N+](=O)[O-])ccc1O | 0.0 |
| Cc1ccc(NC(=O)CCC(=O)C(C)C(=O)c2ccccc2)c(C)c1 (configuration not stated) | 0.0 |
| O=c1[nH]c2c([N+](=O)[O-])cccc2c2ccccc12 | 0.0 |
| COc1ccc(-c2cc(-c3cc(C)cc(Cl)c3O)nc3[nH]c(=S)[nH]c(=S)c23)cc1 | 0.0 |
| Cc1cccc(/C=N/NC(=S)NC2CCCCC2)n1 | 0.0 |
| CCCCCCNCCCNc1c2cc(OC)ccc2nc2cccc([N+](=O)[O-])c12 | 0.0 |
| O=C(NCCCCN(CCCNC(=O)C(F)(F)F)Cc1ccccc1)C(F)(F)F | 0.0 |
| NC(N)=NC(N)=Nc1ccccc1 (tested in a mixture with another compound) | 0.0 |
| c1ccc2nc3c(nc2c1)sc1ccccc13 | 0.0 |
| O=C1CSC(c2ccccc2)N1c1ccc(-c2ccc(-n3c(-c4ccccc4)nc4ccccc4c3=O)cc2)cc1 (configuration not stated) | 0.0 |
| CC(C(=O)N1C(=O)N(C(=O)C(C)C(O)c2ccccc2)C2CCCCC21)C(O)c1ccccc1 (configuration not stated) | 0.0 |
| CCCN=Cc1cc(Cc2ccc(O)c(C=NCCC)c2)ccc1O | 1.0 |
| CN(C)CC1=Nc2cccc3cccc(c23)N1 | 0.0 |
| NC(CCCCCCCCCCCCC(N)C(=O)c1ccccc1)C(=O)c1ccccc1 (configuration not stated) | 0.0 |
| CCCCCCCCSC1=C(Cl)C(=O)C(OC)=C(OC)C1=O | 0.0 |
| C=CCNC1=C2C[C@@H](C)C[C@H](OC)[C@H](O)[C@@H](C)/C=C(\C)[C@H](OC(N)=O)[C@@H](OC)/C=C\C=C(/C)C(=O)NC(=CC1=O)C2=O | 0.0 |
| c1ccc([P+](CCN2Cc3ccccc3C2)(c2ccccc2)c2ccccc2)cc1 | 0.0 |
| Cc1nc2sc3c(c2c(=O)o1)CCCC3 | 0.0 |
| C=CC(C)(C)N1C(=O)C(C(C)=O)=C(O)C1Cc1c[nH]c2ccccc12 (configuration not stated) | 0.0 |
| NC(N)=NS(=O)(=O)c1ccc(Nc2c3ccccc3nc3c(C(=O)NC(CO)(CO)CO)cccc23)cc1 | 0.0 |
| CC(C)(CN1CCCCC1)C(=O)/C=C/c1c(Cl)cccc1Cl | 0.0 |
| Cn1c(-c2ccc(/C=N\N3CCN(/N=C/c4ccc(-c5c[n+]6ccsc6n5C)cc4)CC3)cc2)c[n+]2ccsc12 | 0.0 |
| O=C(c1cc(=O)c2ccc(O)cc2o1)c1ccc(Cl)cc1Cl | 0.0 |
| CCCCN(CCC#N)c1ccc(/C=C/c2ccnc3ccccc23)cc1 | 0.0 |
| Cc1ccc(S(=O)(=O)N/N=C/C(Br)=C(/Br)C(=O)O)cc1 | 0.0 |

The measured values listed here are drawn from PubChem BioAssay (NCI).
